The compounds listed here are annotated with their log10 TGI.
System: COLO 205 colon
Assay: NCI tumour cell line growth inhibition, 48 h
Please note: log10 values; quantity TGI; unit µM.

// solved cases for log10 TGI follow
C=C1C(=O)OC2C1C(OC(=O)/C(C)=C\C)CC1(CO1)C1C(O)C=C(C)C21O (centres undefined)    0.42
O=C(O)c1ccc(Nc2nc3cc(C(F)(F)F)ccc3nc2-c2ccccc2)cc1    1.58

Query: Return reported log10 TGI; argument: COc1ccc(/C=C2/CCS(=O)(=O)c3ccc(C)cc3C2=O)cc1OC
Reply: 1.45

Query: Form field: reported log10 TGI of O=C(Nc1nc(-c2ccc(Cl)cc2)nc2c1sc(=S)n2-c1ccccc1)C(F)(F)F
Reply: 1.51

Query: Item CC1=CC(C)(C)Nc2ccc(CSc3ccccc3)cc21 has what recorded log10 TGI?
Reply: 1.72

Query: What log10 TGI value was documented for this compound, CC(Oc1ccccc1Cl)C(=O)NN1C(=O)CSC1c1ccc(Cl)cc1 (centres undefined) ?
Reply: 1.57
